Reference source for all entries: patent US7384961B2

assay-target: NA re-uptake (Rattus norvegicus)
Construct: synaptosomes are freshly isolated from rat brain areas; from tissue; host or cells: rat brain synaptosomes (P2 fraction), hypothalamus
Sequence (Q63380 1-617): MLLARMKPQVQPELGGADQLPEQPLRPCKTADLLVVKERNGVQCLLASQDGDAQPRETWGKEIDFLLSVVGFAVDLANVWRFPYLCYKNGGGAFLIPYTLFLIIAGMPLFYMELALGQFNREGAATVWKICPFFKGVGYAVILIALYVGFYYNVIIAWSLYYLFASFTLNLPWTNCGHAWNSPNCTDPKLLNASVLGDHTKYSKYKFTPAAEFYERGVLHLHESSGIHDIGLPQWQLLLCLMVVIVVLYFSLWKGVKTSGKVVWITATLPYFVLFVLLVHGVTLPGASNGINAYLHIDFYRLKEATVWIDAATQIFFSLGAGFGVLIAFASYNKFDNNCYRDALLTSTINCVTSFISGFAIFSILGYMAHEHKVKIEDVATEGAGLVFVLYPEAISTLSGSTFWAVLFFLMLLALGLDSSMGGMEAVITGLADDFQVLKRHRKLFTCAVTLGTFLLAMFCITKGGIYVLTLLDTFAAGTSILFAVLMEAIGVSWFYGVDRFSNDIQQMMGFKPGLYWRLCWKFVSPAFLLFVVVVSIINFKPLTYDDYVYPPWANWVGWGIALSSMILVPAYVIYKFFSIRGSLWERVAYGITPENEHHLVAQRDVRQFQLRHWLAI
protocol-description: Inhibition of NA re-uptake in rat brain synaptosomes (P2 fraction, hypothalamus)
Type: biochemical
run-parameters: 10 μmol/l
Counter-ions that a name gives are not always drawn.
Note to self: class labels come from recorded inhibition at 10 µM, ranges listed here: band 1: < 20%; band 2: ≥ 20% and < 50%; band 3: ≥ 50%

compound: CN(C)CC1CCCCC=C1c1cccnc1.Cl (stereo not shown) [Example 24, hydrochloride]
assay-target: NA re-uptake (Rattus norvegicus)
group: band 1

compound: CN(C)C[C@@H]1CCCC[C@H]1c1cccnc1.Cl (relative stereo) [Example 7, hydrochloride]
assay-target: NA re-uptake (Rattus norvegicus)
group: band 2

compound: CN(C)CC1=C(c2cncc(O)c2)CCCC1 [Example 64, hydrochloride]
assay-target: NA re-uptake (Rattus norvegicus)
group: band 1

compound: CNCC1=C(c2cccnc2)CCCC1.Cl [Example 2, hydrochloride]
assay-target: NA re-uptake (Rattus norvegicus)
group: band 1

compound: CN(C)CC1CCCCC1(Cl)c1ccc(Cl)nc1 (stereo not shown) [Example 15, hydrochloride]
assay-target: NA re-uptake (Rattus norvegicus)
group: band 3

compound: COc1ccc(C(CN(C)C)C2(O)CCCCC2)cc1 (stereo not shown) [venlafaxine, reference compound]
assay-target: NA re-uptake (Rattus norvegicus)
group: band 3

compound: COc1cncc(C2CCCCC2CN(C)C)c1 (stereo not shown) [Example 62, hydrochloride]
assay-target: NA re-uptake (Rattus norvegicus)
group: band 1

compound: CN(C)CC1CCCCC=C1c1ccc(Cl)nc1 (stereo not shown) [Example 48, hydrochloride]
assay-target: NA re-uptake (Rattus norvegicus)
group: band 3

compound: COc1cncc(C2=CCCCC2CN(C)C)c1 (stereo not shown) [Example 55, hydrochloride]
assay-target: NA re-uptake (Rattus norvegicus)
group: band 2

compound: CN(C)CC1=C(c2ccc(Cl)nc2)CCCC1 [Example 49, hydrochloride]
assay-target: NA re-uptake (Rattus norvegicus)
group: band 3

compound: COc1cncc([C@H]2CCCCCC[C@H]2CN(C)C)c1 (relative stereo) [Example 72, hydrochloride]
assay-target: NA re-uptake (Rattus norvegicus)
group: band 3

compound: CN(C)CC1CCCCC1(Cl)c1cccnc1 (stereo not shown) [Example 14, hydrochloride]
assay-target: NA re-uptake (Rattus norvegicus)
group: band 2
